Target: bradykinin 1 receptor (B1R) of the rat (Rattus norvegicus, UniProt P97583)
Construct: expressed in transfected cells; host or cells: CHO K1 cells
Sequence (P97583 1-337): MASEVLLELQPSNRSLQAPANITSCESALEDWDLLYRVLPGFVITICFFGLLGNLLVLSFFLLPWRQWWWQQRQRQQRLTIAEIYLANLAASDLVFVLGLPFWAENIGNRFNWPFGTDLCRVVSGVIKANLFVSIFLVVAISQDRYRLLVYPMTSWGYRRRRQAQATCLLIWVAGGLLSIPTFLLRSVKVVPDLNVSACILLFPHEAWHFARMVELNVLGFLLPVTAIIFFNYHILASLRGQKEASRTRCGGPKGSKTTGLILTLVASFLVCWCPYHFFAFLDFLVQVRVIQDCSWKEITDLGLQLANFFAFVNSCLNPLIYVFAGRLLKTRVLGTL
Test: Functional investigation on the rat bradykinin 1 receptor (B1R), Ca2+ FLIPR assay in CHO K1 rB1R cells
Type: cell-based
Settings: CHO-K1, B1R antagonism rat; test substance 10 μM; Ca2+ FLIPR, CHO K1 rB1R cells; read-out: B1R Ant. r [10 μM] % Inhibition
measured-property: inhibition at 10 µM (%)
Numbers only, in %.

- molecule: "O=C(COCC1CCCCN1S(=O)(=O)c1c(Cl)cc(Cl)cc1Cl)NCC1CCC(C(CCc2ccccc2)N2CCCC2)CC1 (stereo not shown)"
  endpoint-value: 102
- molecule: "CN(C)C(CCc1ccccc1)C1CCC(NC(=O)CNC(=O)c2nc(-c3cc(Cl)cc(Cl)c3)no2)CC1 (stereo not shown)"
  endpoint-value: 11
- molecule: "CN(Cc1ccccc1)C(c1ccccc1)C1CCC(NC(=O)COCCN(C2CC2)S(=O)(=O)c2c(Cl)cc(Cl)cc2Cl)CC1 (stereo not shown)"
  endpoint-value: 33

Kindly consider the entry below.
Measured inhibition at 10 µM, CN(C)C(c1cccs1)C1CCC(CCNC(=O)COCCN(C)S(=O)(=O)c2ccc(OC(F)(F)F)cc2)CC1 (stereo not shown) : 18

Source of measurements: patent US8106055B2
